Exercise: state measured cAMP production activity (%) for each of the molecules provided.
- targetOrTestSystem: human PTH1 receptor (Homo sapiens)
- Sequence (Q03431 27-593): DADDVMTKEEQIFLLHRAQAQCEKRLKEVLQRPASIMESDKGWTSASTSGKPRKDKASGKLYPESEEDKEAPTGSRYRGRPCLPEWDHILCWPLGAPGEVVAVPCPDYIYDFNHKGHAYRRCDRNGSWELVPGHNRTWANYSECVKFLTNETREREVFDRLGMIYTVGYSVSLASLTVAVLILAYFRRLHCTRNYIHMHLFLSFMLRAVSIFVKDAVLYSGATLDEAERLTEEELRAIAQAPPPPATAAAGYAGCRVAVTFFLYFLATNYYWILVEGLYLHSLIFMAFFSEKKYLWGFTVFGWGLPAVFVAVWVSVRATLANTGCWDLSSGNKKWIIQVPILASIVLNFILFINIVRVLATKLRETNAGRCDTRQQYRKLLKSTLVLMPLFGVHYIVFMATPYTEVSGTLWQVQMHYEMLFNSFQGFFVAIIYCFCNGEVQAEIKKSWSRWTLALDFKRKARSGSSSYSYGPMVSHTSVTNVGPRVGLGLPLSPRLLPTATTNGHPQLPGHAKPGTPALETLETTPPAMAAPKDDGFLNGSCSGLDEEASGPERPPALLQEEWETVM
- protocolDetails: In vitro cAMP signal activity in HKRK-B7 cells (LLC-PK1 cells overexpressing the human PTH1 receptor)
- Type: cell-based
- cond: HKRK-B7 cells; compound at 1×10^−3 M; cAMP produced as percentage of that produced by hPTH(1-34) at 100 nM
Answers are plain numbers, in %.

Hey, can you go through the list below and give me cAMP production activity (%) for every item?
1. Cc1cc(N2C[C@H](CO)OC2=O)ccc1/C=C/S(=O)(=O)N1CCC2(CC1)N=C(c1cccc(C(F)(F)F)c1)NC2=O [Compound 222]
2. Cc1cc(N(C)C(=O)C(F)(F)F)cc(C)c1CCS(=O)(=O)N1CCC2(CC1)N=C([C@H]1CC[C@H](C)CC1)NC2=O [Compound 931]
3. CC(=O)N(C)c1cc(C)c(CCS(=O)(=O)N2CCC3(CC2)N=C(C2CCC(CCC(F)(F)F)CC2)NC3=O)c(C)c1 (centres unmarked) [Compound 759]
4. Cc1cc(N(C)C(N)=O)cc(C)c1CCS(=O)(=O)N1CCC2(CC1)N=C(C1CCC(CCC(F)(F)F)CC1)NC2=O (centres unmarked) [Compound 696]
5. CC(=O)Nc1ccc(CCS(=O)(=O)N2CCC3(CC2)N=C([C@H]2CC[C@@H](C/C=C/F)CC2)NC3=O)c(C)c1 [Compound 1070]

1. 43
2. 72
3. 79
4. 132
5. 69

---

- targetOrTestSystem: human PTH1 receptor (Homo sapiens)
- protocolDetails: In vitro cAMP signal activity in HKRK-B7 cells (LLC-PK1 cells overexpressing the human PTH1 receptor)
- Type: cell-based
- cond: HKRK-B7 cells; compound at 1×10^−3 M; cAMP produced as percentage of that produced by hPTH(1-34) at 100 nM
Exercise: state measured cAMP production activity (%) for each of the compounds provided.
One number for each entry, in %.

Worked set:
> print(dat)
                                   compound           experimentalreadout  scaleunit  observedmeasurement
1  O=C1NC(C2CCC(C(F)(F)F)CC2)=NC12CCN(S(=O)(=O)CCc1cccc3ccccc13)CC2 (stereo not drawn)  cAMP production activity (%)          %                   54
2  CCC[C@@H]1CCC[C@H](C2=NC3(CCN(S(=O)(=O)CCc4ccc(N5C(=O)CNC5=O)cc4C)CC3)C(=O)N2)C1  cAMP production activity (%)          %                   92

Hey, can you go through the list below and give me cAMP production activity (%) for every item?
1. CC(=O)NCc1cc(C)c(CCS(=O)(=O)N2CCC3(CC2)N=C(C2CCC(CCC(F)(F)F)CC2)NC3=O)c(C)c1 (stereo not drawn)
2. CC(=O)N(c1cc(C)c(/C=C/S(=O)(=O)N2CCC3(CC2)N=C(C2CCCCC2)NC3=O)c(C)c1)C1CCC(O)CC1 (stereo not drawn)
3. Cc1cc(C(=O)N2CC(F)(F)C(F)(F)C2)ccc1/C=C/S(=O)(=O)N1CCC2(CC1)N=C(C1CCCCC1)NC2=O

[69, 58, 25]

Hey, can you go through the list below and give me cAMP production activity (%) for every item?
1. Cc1cc(C(=O)N2CCC[C@@H]2CO)ccc1CCS(=O)(=O)N1CCC2(CC1)N=C(c1cccc(C(F)(F)F)c1)NC2=O
2. Cc1cc(OCCC(O)CO)ccc1/C=C/S(=O)(=O)N1CCC2(CC1)N=C(c1cccc(OC(F)(F)F)c1)NC2=O (stereo not drawn)
3. CCCCCCCCCC1=NC2(CCN(S(=O)(=O)CCc3c(C)cc(C(=O)N4CCCCC4)cc3C)CC2)C(=O)N1
4. Cc1cc(NC(=O)[C@@H](N)CO)ccc1/C=C/S(=O)(=O)N1CCC2(CC1)N=C(c1cccc(C(F)(F)F)c1)NC2=O
5. Cc1cc(C(=O)N(C)C)ccc1CCS(=O)(=O)N1CCC2(CC1)N=C(c1ccc(F)c(Cl)c1)NC2=O
6. Cc1cc(C(=O)N2CCC(O)CC2)ccc1CCS(=O)(=O)N1CCC2(CC1)N=C(c1cccc(OC(F)(F)F)c1)NC2=O

1. 72
2. 69
3. 91
4. 55
5. 96
6. 65

Hey, can you go through the list below and give me cAMP production activity (%) for every item?
1. Cc1cc(C(=O)N(C)C)ccc1CCS(=O)(=O)N1CCC2(CC1)N=C(c1ccc(S(C)(=O)=O)cc1)NC2=O
2. Cc1cc(C(=O)N2CCC(O)CC2)c(F)cc1CCS(=O)(=O)N1CCC2(CC1)N=C(c1cccc(C(F)(F)F)c1)NC2=O
3. Cc1cc2ccc1CCS(=O)(=O)N1CCC3(CC1)N=C(NC3=O)c1cc(cc(C(F)(F)F)c1)OCCC/C=C/COCCN(C)C2=O

[8.6, 96, 54]

Hey, can you go through the list below and give me cAMP production activity (%) for every item?
1. CCSCCCCCCC1=NC2(CCN([S@TB18](=O)(=O)CCc3c(C)cc(N(C)C(N)=O)cc3C)CC2)C(=O)N1
2. Cc1cc(C(=O)N(C)C)ccc1CCS(=O)(=O)N1CCC2(CC1)N=C(c1cccc(C(F)(F)F)c1)NC2=O

1: 115; 2: 66
